target of assay: T1, recombinant human HER2 extracellular domain protein (human, UniProt P04626 23-652)
T1 construct: range 23-652; Range is printed for the immunogen/panning protein; also called ErbB2; recombinant HER2 protein
assay: BLI, Protein A capture
observed property: kon (M⁻¹ s⁻¹)
Quick note: give the figure in M⁻¹ s⁻¹, leave out the unit.

Example entries and their recorded answers appear below.
Hu2117HK-Mu07 (Fc fusion, name in Kabat numbering, scFv-hIgG1 Fc; not shown: human IgG1 Fc) scFv: EVQLVESGGGLVQPGGSLRLSCAASGFTYSSYGMSWVRQAPGKGLEWVASISGGGSYTYYPDSVKGRFTISRDNSKNTLYLQMNSLRAEDTAVYYCARDYAGFFDVWGQGTLVTVSSGGGGSGGGGSGGGGSDIQMTQSPSSLSASVGDRVTITCRSSQSLVHSNGNTYLHWYQQKPGKAPKLLIYKVSNRFSGVPSRFSGSGSGTDFTLTISSLQPEDFATYFCSQSTHVPYTFGQGTKVEIK | 39800
Hu2117HK-Mu50 (Fc fusion, scFv-hIgG1 Fc; not shown: human IgG1 Fc) scFv: EVQLVESGGGLVQPGGSLRLSCAASGFTYSSYGMSWVRQAPGKGLEWVASISGGGSYTKYPDSVKGRFTISRDNSKNTLYLQMNSLRAEDTAVYYCARDYVGFFDVWGQGTLVTVSSGGGGSGGGGSGGGGSDIQMTQSPSSLSASVGDRVTITCRSSQSLVHSNGNTYLHWYQQKPGKAPKLLIYKVSNRFSGVPSRFSGSGSGTDFTLTISSLQPEDFATYFCSQSTHVPYTFGQGTKVEIK | 100000

Need kon, item Hu2117HK-Mu21 (Fc fusion, name in Kabat numbering, scFv-hIgG1 Fc; not shown: human IgG1 Fc) scFv: EVQLVESGGGLVQPGGSLRLSCAASGFTYSSYGMSWVRQAPGKGLEWVASISGGGSYTKYPDSVKGRFTISRDNSKNTLYLQMNSLRAEDTAVYYCARDYAGFFDVWGQGTLVTVSSGGGGSGGGGSGGGGSDIQMTQSPSSLSASVGDRVTITCRSSQSLVHSTGNTYLHWYQQKPGKAPKLLIYKVSNRFSGVPSRFSGSGSGTDFTLTISSLQPEDFATYFCSQSTHVPYTFGQGTKVEIK 46800
